# target.desc: T1, FLAG-tagged human latent TGF-beta 1 (human, UniProt P01137 34-390)
# T1 construct: Co-expressed with human furin, purified on anti-FLAG resin and by gel filtration; also called human latent TGF-beta 1 (SLC); hSLC
# test.details: SPR (BIACORE), antibody captured on anti-human Fc, antigen as analyte, pH 7.4
measure.name: Kd (nM)
Numbers only, in nM.

Record excerpt, results attached:
hT0947AE23-SG181 (antibody, human IgG1, kappa, V domains shown, Human IgG1; Heavy chain = VH + CH, light chain = VL + CL) VH: QVQLVESGGGVVQPGRSLRLSCAASGFHFSREAMNWIRQPPGKGLEWIGYIYTSGTTYRANWARGRFTISRDNSKNTLYLQMNSLRAEDTAVYYCARGTHLFGHHYWVMHSWGQGTLVTVSS VL: DIQMTQSPSSLSASVGDRVTITCQASQSISTYLAWYQQKPGQPPKLLIYAASTLEYGVPSRFSGSGSGTDFTLTISSLQPEDFATYYCQSYSDGDSVVFGQGTKVEIKR; 3.25
hT0947AE25-SG181 (antibody, human IgG1, kappa, V domains shown, Human IgG1; Heavy chain = VH + CH, light chain = VL + CL) VH: QVQLVESGGGVVQPGRSLRLSCAASGFHFSNEAMNWIRQPPGKGLEWIGYIYTSGTTYRSNWARGRFTISRDNSKNTLYLQMNSLRAEDTAVYYCARGWHIFGHQYWVMHFWGQGTLVTVSS VL: DIQMTQSPSSLSASVGDRVTITCQASQSISTYEAWYQQKPGQPPKLLIYAASTLESGVPSRFSGSGSGTDFTLTISSLQPEDFATYYCQSYSDGDSVGFGQGTKVEIKR; 3.88
hT0947AE26-SG181 (antibody, human IgG1, kappa, V domains shown, Human IgG1; Heavy chain = VH + CH, light chain = VL + CL) VH: QVQLVESGGGVVQPGRSLRLSCAASGFHFSNEAMNWIRQPPGKGLEWIGYIYTSGTTYRSNWARGRFTISRDNSKNTLYLQMNSLRAEDTAVYYCARGWHIFGHQYWVMHFWGQGTLVTVSS VL: DIQMTQSPSSLSASVGDRVTITCQASQSISTYEAWYQQKPGQPPKLLIYAASTLESGVPSRFSGSGSGTDFTLTISSLQPEDFATYYCQSYSDGDSVKFGQGTKVEIKR; 3.33

Item hT0947AE24-SG181 (antibody, human IgG1, kappa, V domains shown, Human IgG1; Heavy chain = VH + CH, light chain = VL + CL) VH: QVQLVESGGGVVQPGRSLRLSCAASGFHFSSEAMNWIRQPPGKGLEWIGYIYTSGTTYRANWARGRFTISRDNSKNTLYLQMNSLRAEDTAVYYCARGWHIFGHHYWVMHFWGQGTLVTVSS VL: DIQMTQSPSSLSASVGDRVTITCQASQSISTYLAWYQQKPGQPPKLLIYAASTLEWGVPSRFSGSGSGTDFTLTISSLQPEDFATYYCQSYSDGDSVGFGQGTKVEIKR has what recorded Kd?
2.55
